assaySystem: T1, recombinant human LAG3 expressed with a C-terminal myc-myc-hexahistidine tag (human, UniProt P18627 29-450)
T1 construct: also called hLAG3-mmh; hLAG3.mmh
T1 sequence (P18627 other isoform, or with tags, fused parts or gaps limits assumed): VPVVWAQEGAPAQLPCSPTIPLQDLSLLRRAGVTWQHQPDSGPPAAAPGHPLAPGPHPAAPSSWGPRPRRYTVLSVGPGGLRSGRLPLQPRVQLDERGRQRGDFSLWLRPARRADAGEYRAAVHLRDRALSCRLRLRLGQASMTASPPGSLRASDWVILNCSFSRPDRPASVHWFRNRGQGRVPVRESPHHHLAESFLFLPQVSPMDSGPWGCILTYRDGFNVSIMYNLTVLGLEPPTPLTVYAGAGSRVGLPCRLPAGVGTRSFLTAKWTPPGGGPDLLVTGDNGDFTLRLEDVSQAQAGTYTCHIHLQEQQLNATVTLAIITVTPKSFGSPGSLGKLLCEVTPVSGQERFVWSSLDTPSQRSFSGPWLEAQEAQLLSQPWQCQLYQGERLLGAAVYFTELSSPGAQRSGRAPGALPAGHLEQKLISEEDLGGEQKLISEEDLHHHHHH
methodSummary: SPR, mAb captured, 37 C
measurementLabel: t1/2
Answer shape: numeric part, then the unit.

In the examples that follow, each entry is paired with its recorded t1/2.
binder: H4H17823P (antibody, human IgG4, V domains shown, H4H = human IgG4 Fc with S108P hinge mutation) VH: EVQLLESGGGLVQPGGSLRLSCAASGFTFRSYAMSWVRQAPGKGLEWVSVISGGGGRTYYTDSVKGRFTISRDNSKSMLYLQMNSLRAEDTAIYYCAKERVTGIDHYYYGVDVWGQGTTVTVSS VL: DIQMTQSPSSLSASVGDRVTITCRASQSISSYLNWYQQKPGKAPKLLIYATSSLQSGVPSRFSGSASGTDFTLAISSLQPEDFATYYCQQSYTTPLTFGGGTKVEIK
t1/2: 0.208 h
--
binder: H4sH14813N (antibody, human IgG4 S228P, kappa, V domains shown, H4sH = modified human IgG4 Fc) VH: QVQLQQWGAGLLKPSETLSLTCAVYGGSFSGYYWNWIRQPPGKGLEWVGEISHRGSTNYNPSLKSRVTISLDTSKNQFSLKLTSVTAADTAVYYCSRDEELEFRFFDYWGQGTLVTVSS VL: EIVLTQSPATLSLSPGERATLSCRASQSVSSYLAWYQQKPGQAPRLLVYGASNRATGIPARFSGSGSGTDFTLTISSLEPEDFAFYYCQQRSNWPLTFGGGTKVEIKR
t1/2: 1.25 h

Kindly review the next binder as well.
Return the recorded t1/2 value; entry: H4H14813N (antibody, human IgG4, V domains shown, H4H = human IgG4 Fc with S108P hinge mutation) VH: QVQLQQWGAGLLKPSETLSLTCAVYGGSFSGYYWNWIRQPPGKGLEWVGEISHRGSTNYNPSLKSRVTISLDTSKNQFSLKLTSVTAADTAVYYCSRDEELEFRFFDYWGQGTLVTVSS VL: EIVLTQSPATLSLSPGERATLSCRASQSVSSYLAWYQQKPGQAPRLLVYGASNRATGIPARFSGSGSGTDFTLTISSLEPEDFAFYYCQQRSNWPLTFGGGTKVEIK 1.27 h
